- System Tested: T1, human leukocyte elastase (hLE) (human), P08246
- T1 chain: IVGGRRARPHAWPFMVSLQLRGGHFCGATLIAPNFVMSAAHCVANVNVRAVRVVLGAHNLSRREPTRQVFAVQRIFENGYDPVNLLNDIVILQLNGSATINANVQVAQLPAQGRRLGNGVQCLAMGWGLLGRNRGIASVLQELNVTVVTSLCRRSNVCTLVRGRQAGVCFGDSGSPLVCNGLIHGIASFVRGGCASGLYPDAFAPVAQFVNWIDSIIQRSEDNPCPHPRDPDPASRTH
- Particulars: modification not given
Assay Metric: pKi
Please treat pKi as minus the base-10 logarithm of the molar concentration.

Data request, read-out pKi, for ILIFWSKDIGYSFT [CRP63-76 (peptide 11)] 5.35
